test: Cytotoxicity in Hs27 cells, CellTiter-Glo ATP viability, 48-h incubation; assay type: cell-based; details: human, Hs27 normal skin fibroblast cells, Hs27 normal fibroblasts
measurementType: CC50 at 48 h (µM)
Numeric only. Scale: µM

- inputSmiles: "COc1c(Br)cc(C/C(=N\\O)C(=O)NCc2ccc(Cl)c(Cl)c2)cc1Br"
  CC50 at 48 h / µM: 22.3
- inputSmiles: "CNCCCOc1c(Br)cc(CCNC(=O)/C(Cc2cc(Br)c(OC)c(Br)c2)=N/O)cc1Br"
  CC50 at 48 h / µM: 5.2

Any idea what CC50 at 48 h was measured for COc1c(Br)cc(C/C(=N\O)C(=O)Nc2ccc(Cl)c(Cl)c2)cc1Br ?
15.2

Any idea what CC50 at 48 h was measured for COc1ccc(NC(=O)/C(Cc2cc(Br)c(OC)c(Br)c2)=N/O)cc1Br ?
22.5

Any idea what CC50 at 48 h was measured for COc1c(Br)cc(C/C(=N\O)C(=O)Nc2ccc(Cl)c(C(F)(F)F)c2)cc1Br ?
12

Any idea what CC50 at 48 h was measured for COc1c(Br)cc(C/C(=N\O)C(=O)NCCc2cc(Br)c(OCCCN(C)C)c(Br)c2)cc1Br ?
4.5

src = paper PMC6316490
